Molecular target: HLA-B1502 (Homo sapiens, UniProt P01889, A329T/A93T/A95T/C349S/D201E/D98Y/E187L/E204Q/E69M/E70A/H137Y/K202T/L119I/Q94N/R155S/R180L/S121R/S35A/S48A/T118I/V306I/V36M/Y140S/Y91S)
Assay: Competitive peptide binding assay, CIR-B1502
Settings: HMy2.CIR-B1502 cells, reference Cy5-[…], class from inhibition at 5 and 15 μM, flow cytometry MFI; read-out: Binding affinity with HLA-B1502
pIC50: −log10 of the molar value. Peptide text beside a SMILES is read from it.
reported property: pIC50

molecule	pIC50
CSCC[C@H](NC(=O)[C@H](CO)NC(=O)[C@H](CCCNC(=N)N)NC(=O)[C@@H](NC(=O)[C@H](CCCNC(=N)N)NC(=O)[C@H](C)NC(=O)[C@@H](N)Cc1ccccc1)[C@@H](C)O)C(=O)N[C@@H](Cc1c[nH]c2ccccc12)C(=O)N[C@@H](CO)C(=O)N[C@@H](Cc1ccccc1)C(=O)O [Epitope Y47] (H-FARTRSMWSF-OH; N-terminus and C-terminus assumed)	> 5.30

--- query ---
In: What value of pIC50 has been recorded for this entry: CC[C@H](C)[C@H](NC(=O)[C@@H]1CCCN1C(=O)[C@@H]1CCCN1C(=O)[C@@H](NC(=O)[C@H](CCCCN)NC(=O)[C@H](Cc1ccc(O)cc1)NC(=O)[C@@H](NC(=O)[C@H](CCC(N)=O)NC(=O)[C@@H](N)CCCCN)[C@@H](C)CC)[C@@H](C)O)C(=O)O [Epitope Y82] (H-KQIYKTPPI-OH; N-terminus and C-terminus assumed)
Out: < 4.82
